Please respond with reported pIC50 for every item in the list.
Biological target: Histone deacetylase 3 (Homo sapiens, UniProt O15379)
Sequence (O15379 whole entry): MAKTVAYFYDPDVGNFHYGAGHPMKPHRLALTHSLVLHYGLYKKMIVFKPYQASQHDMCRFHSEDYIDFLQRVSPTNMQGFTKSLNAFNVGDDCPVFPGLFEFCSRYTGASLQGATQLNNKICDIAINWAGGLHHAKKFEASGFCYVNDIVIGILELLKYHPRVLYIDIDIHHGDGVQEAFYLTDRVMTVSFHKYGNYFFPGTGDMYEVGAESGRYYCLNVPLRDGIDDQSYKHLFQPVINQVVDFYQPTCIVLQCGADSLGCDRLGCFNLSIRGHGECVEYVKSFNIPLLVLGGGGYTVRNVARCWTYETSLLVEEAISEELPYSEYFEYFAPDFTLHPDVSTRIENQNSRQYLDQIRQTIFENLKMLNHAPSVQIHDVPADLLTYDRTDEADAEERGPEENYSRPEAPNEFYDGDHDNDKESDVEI
Assay: Inhibition of HDAC3 after 17 hrs
Keep it numeric: pIC50 is minus log10 of the concentration in mol/L.

Any idea what its pIC50 is? The molecule is Nc1cccc(-c2cc(C(=O)NCCCCCCC(=O)NO)no2)c1
8.39

What measured pIC50 goes with CC(C)(C)OC(=O)Nc1ccc(-c2cc(C(=O)NCCCCC(=O)NO)no2)cc1 ?
6.94

pIC50 for Nc1cccc(-c2cc(C(=O)NCCCCC(=O)NO)no2)c1 ?
6.84

Which value of pIC50 has been reported for O=C(CCCCOCc1cc(-c2ccccc2)on1)NO in the records?
7.89

Fill in the blank: the reported pIC50 of CC(C)(C)OC(=O)Nc1ccc(-c2cc(C(=O)NCCCCCCC(=O)NO)no2)cc1 is ____.
9.38

What does the record list as pIC50 for O=C(CCCCNC(=O)c1cc(-c2ccccc2)on1)NO ?
6.80

Would you mind telling me what pIC50 value was observed for Nc1ccc(-c2cc(C(=O)NCCCCCCC(=O)NO)no2)cc1 ?
7.99

====

System: BXPC-3
Test: Antiproliferative activity against human BxPC3 cells after 72 hrs by MTT assay
Format: functional, cell-based
Settings: BXPC-3, 72 h
For each of the molecules below, state its pIC50.
Scale explanation: pIC50 corresponds to minus log10 of a concentration expressed in moles per litre.

What value of pIC50 has been recorded for this entry: Nc1cccc(-c2cc(C(=O)NCCCCC(=O)NO)no2)c1
4.42

Data request, read-out pIC50, for CC(C)(C)OC(=O)Nc1ccc(-c2cc(C(=O)NCCCCC(=O)NO)no2)cc1
4.60

Look up pIC50: CC(=O)Nc1ccc(-c2cc(C(=O)NCCCCCCC(=O)NO)no2)cc1
5.22

Consider the molecule shown here: O=C(CCCCNC(=O)c1cc(-c2ccccc2)on1)NO What is its recorded pIC50?
4.55

Suppose we examine the molecule Nc1cccc(-c2cc(C(=O)NCCCCCCC(=O)NO)no2)c1 ; what pIC50 value has been reported?
6.15

What value of pIC50 has been reported for the following molecule? O=C(CCCCOCc1cc(-c2ccccc2)on1)NO
5.15

Need pIC50, item CC(C)(C)OC(=O)Nc1ccc(-c2cc(C(=O)NCCCCCCC(=O)NO)no2)cc1
6.00

# input molecule: CC(C)(C)OC(=O)Nc1cccc(-c2cc(C(=O)NCCCCCCC(=O)NO)no2)c1 ; wanted: its pIC50
6.00

Which pIC50 value is on record for CC(C)(C)OC(=O)Nc1cccc(-c2cc(C(=O)NCCCCC(=O)NO)no2)c1 ?
4.44

Requested field: pIC50. Item: Nc1ccc(-c2cc(C(=O)NCCCCCCC(=O)NO)no2)cc1
6.10

Look up pIC50: Nc1ccc(-c2cc(C(=O)NCCCCC(=O)NO)no2)cc1
4.48

====

Please respond with reported pIC50 for every item in the list.
Experiment: Antiproliferative activity against human Panc04.03 cells after 72 hrs by MTT assay
Assay type: functional, cell-based
Settings: Panc 04.03, 72 h
The meaning of pIC50 here: minus log10 of the concentration in molar units.

Quick one: pIC50 of CC(=O)Nc1ccc(-c2cc(C(=O)NCCCCCCC(=O)NO)no2)cc1 ?
5.40

Recorded pIC50 of O=C(CCCCNC(=O)c1cc(-c2ccccc2)on1)NO , please.
5.30

What does the data say about its pIC50? Entry: CC(C)(C)OC(=O)Nc1cccc(-c2cc(C(=O)NCCCCCCC(=O)NO)no2)c1
6.00

What value of pIC50 has been recorded for this entry: CC(C)(C)OC(=O)Nc1cccc(-c2cc(C(=O)NCCCCC(=O)NO)no2)c1
4.85

Give the measured pIC50 of O=C(CCCCOCc1cc(-c2ccccc2)on1)NO .
5.82

====

Assignment: determine reported IC50 for the given compounds.
Biological target: UniProt:Q9UBN7
Sequence (Q9UBN7 whole entry): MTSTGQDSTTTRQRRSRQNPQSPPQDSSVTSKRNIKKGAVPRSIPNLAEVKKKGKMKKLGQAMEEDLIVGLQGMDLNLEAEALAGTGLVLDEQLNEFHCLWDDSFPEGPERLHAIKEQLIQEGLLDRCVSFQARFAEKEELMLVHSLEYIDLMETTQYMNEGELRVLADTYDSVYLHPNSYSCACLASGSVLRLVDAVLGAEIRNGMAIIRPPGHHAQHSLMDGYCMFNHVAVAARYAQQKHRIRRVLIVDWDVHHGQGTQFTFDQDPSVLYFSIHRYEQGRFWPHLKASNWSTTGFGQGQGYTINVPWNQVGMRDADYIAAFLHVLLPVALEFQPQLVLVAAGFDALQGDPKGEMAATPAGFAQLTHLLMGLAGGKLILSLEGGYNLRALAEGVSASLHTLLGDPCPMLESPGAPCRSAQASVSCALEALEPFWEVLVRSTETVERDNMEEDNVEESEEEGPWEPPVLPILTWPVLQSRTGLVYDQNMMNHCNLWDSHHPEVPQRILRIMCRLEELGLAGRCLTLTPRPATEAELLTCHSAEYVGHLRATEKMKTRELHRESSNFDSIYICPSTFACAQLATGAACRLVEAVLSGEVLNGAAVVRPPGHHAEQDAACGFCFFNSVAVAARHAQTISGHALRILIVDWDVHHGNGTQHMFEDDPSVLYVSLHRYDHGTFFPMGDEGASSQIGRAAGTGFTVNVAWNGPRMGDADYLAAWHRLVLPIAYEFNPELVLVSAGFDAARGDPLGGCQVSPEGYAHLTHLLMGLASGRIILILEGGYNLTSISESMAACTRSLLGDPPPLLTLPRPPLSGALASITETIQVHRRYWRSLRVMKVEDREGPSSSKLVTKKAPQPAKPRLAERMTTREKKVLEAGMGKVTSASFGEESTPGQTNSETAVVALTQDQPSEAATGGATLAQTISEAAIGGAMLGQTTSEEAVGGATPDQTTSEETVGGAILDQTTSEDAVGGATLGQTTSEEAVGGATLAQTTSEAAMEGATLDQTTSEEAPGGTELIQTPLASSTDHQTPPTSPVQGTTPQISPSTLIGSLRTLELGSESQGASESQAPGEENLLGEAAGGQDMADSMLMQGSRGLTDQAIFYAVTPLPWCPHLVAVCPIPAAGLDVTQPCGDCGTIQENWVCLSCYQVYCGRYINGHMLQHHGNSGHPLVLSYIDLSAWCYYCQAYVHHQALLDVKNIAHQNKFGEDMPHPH

Which value of IC50 has been reported for CC(C)(C)OC(=O)Nc1ccc(-c2cc(C(=O)NCCCCC(=O)NO)no2)cc1 in the records?
31.6 nM

Recorded IC50 for CC(C)(C)OC(=O)Nc1cccc(-c2cc(C(=O)NCCCCC(=O)NO)no2)c1 , please?
3.98 nM

Which IC50 value is on record for Nc1cccc(-c2cc(C(=O)NCCCCCCC(=O)NO)no2)c1 ?
2.54 nM

So what's the measured IC50 for this one? Nc1ccc(-c2cc(C(=O)NCCCCC(=O)NO)no2)cc1
35.1 nM

====

Give measured pIC50 for each item. Keep answers brief.
Please express pIC50 as -log10 of the molar concentration.

// map CC(C)(C)OC(=O)Nc1ccc(-c2cc(C(=O)NCCCCCCC(=O)NO)no2)cc1 to recorded pIC50 (system: UniProt Q13547)
Sequence (Q13547 whole entry): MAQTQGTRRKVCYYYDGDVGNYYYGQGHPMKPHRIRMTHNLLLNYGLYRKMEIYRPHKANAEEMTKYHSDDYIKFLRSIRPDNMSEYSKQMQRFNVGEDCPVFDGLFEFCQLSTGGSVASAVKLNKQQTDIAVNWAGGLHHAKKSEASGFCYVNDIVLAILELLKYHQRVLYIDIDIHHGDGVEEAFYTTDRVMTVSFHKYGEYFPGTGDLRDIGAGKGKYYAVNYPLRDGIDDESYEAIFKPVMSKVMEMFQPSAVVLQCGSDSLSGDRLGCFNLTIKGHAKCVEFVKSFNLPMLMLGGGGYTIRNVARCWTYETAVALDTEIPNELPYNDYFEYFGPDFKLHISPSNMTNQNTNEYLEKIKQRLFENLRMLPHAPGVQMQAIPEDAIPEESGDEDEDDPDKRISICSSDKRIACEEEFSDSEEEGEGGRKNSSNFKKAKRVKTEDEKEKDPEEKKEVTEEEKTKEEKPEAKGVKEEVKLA
6.57

Value wanted: pIC50 (UniProt Q13547) of entry CC(C)(C)OC(=O)Nc1ccc(-c2cc(C(=O)NCCCCC(=O)NO)no2)cc1
6.20

Hello, I am looking for reported pIC50 with UniProt Q13547 for Nc1ccc(-c2cc(C(=O)NCCCCC(=O)NO)no2)cc1 . Could you help?
6.44

Please tell me: pIC50 of O=C(CCCCNC(=O)c1cc(-c2ccccc2)on1)NO , system UniProt Q13547?
6.19

What measured pIC50 is associated with Nc1cccc(-c2cc(C(=O)NCCCCCCC(=O)NO)no2)c1 on UniProt Q13547?
7.68

====

Assay: Antiproliferative activity against human Panc04.03 cells after 72 hrs by MTT assay
Format: functional, cell-based
Conditions: Panc 04.03, 72 h
Give pIC50 for every item shown.
The meaning of pIC50 here: minus log10 of the concentration in molar units.

What value of measured pIC50 is listed for CC(C)(C)OC(=O)Nc1ccc(-c2cc(C(=O)NCCCCCCC(=O)NO)no2)cc1 ?
7.00

// returns reported pIC50 for input CC(C)(C)OC(=O)Nc1ccc(-c2cc(C(=O)NCCCCC(=O)NO)no2)cc1
4.80

Requested field: pIC50. Item: Nc1ccc(-c2cc(C(=O)NCCCCCCC(=O)NO)no2)cc1
7.00

# get_value(readout='pIC50', item= Nc1cccc(-c2cc(C(=O)NCCCCCCC(=O)NO)no2)c1 )
6.05

I would be grateful if you could share the reported pIC50 for Nc1ccc(-c2cc(C(=O)NCCCCC(=O)NO)no2)cc1 .
4.77
